Numbers sourced from ChEMBL document CHEMBL4513216.

- Tested on: Plasmodium berghei
- MEASUREMENT_DESCRIPTION: Screen against P. berghei liver stage (PbLuc), transformed with Luciferase, at 10uM
- Format: functional, HepG2
- CONDITIONS: tested at 10 uM
Among all 69,000 compounds or so, about 8,600 (12%) showed an effect of 50% or more. The sample as a whole holds a higher share of strong results than the screen did.
Quick reference for INHIBITION among some compounds
Give the number; % is assumed, so skip it.

The following compounds have reported results that may help.
[
  {
    "COMPOUND": "Cc1noc(C)c1CN1C[C@@H]2CCCO[C@@H]2[C@H](Nc2ccccn2)C1",
    "EXPERIMENTAL_RESULT": 16.4
  },
  {
    "COMPOUND": "Cc1cc(-c2cnc(N3CCCC(C)C3)nc2-c2cccnc2C)on1 (centres undefined)",
    "EXPERIMENTAL_RESULT": 64.3
  },
  {
    "COMPOUND": "COc1ccc(C(=O)N2Cc3cc(C)ccc3OCC2CN(C)C)cc1 (centres undefined)",
    "EXPERIMENTAL_RESULT": 66.5
  },
  {
    "COMPOUND": "c1cnnc(N2CCCC2CNc2ncnc3c2CCC3)c1 (centres undefined)",
    "EXPERIMENTAL_RESULT": -24.2
  },
  {
    "COMPOUND": "Cc1cc(-c2cnc(N3CCC(O)CC3)nc2-c2cccnc2C)on1",
    "EXPERIMENTAL_RESULT": 11.1
  }
]

Exercise: What does the data say about its INHIBITION? Entry: c1cnnc(N2CCCC2CNc2ncnc3sccc23)c1 (centres undefined)
Solution: -19.6

Exercise: Consider the compound CC(C)NS(=O)(=O)c1cc(C(=O)O)cc(-c2ccccc2F)c1 and give its measured INHIBITION.
Solution: -108

Exercise: Give the measured INHIBITION of Cc1ccc2c(c1)CN(C(=O)c1ccncc1)C(CN(C)C)CO2 (centres undefined) .
Solution: -23.8

Exercise: What does the data say about its INHIBITION? Entry: CN1CCN(C(=O)C2CCCN(c3cccnn3)C2)CC1 (centres undefined)
Solution: 42.4

Exercise: Please look up its INHIBITION: O=C(COC1CCCCC1)N1CCCC(n2ccnc2)C1 (centres undefined)
Solution: -29.8

====

INHIBITION for assorted molecules
- System: Plasmodium berghei
- MEASUREMENT_DESCRIPTION: Screen against P. berghei liver stage (PbLuc), transformed with Luciferase, at 10uM
- Assay type: functional, HepG2
- CONDITIONS: tested at 10 uM
Out of some 69,000 compounds screened, about 8,600 (12%) showed an effect of 50% or more. The list comes from a sample in which strong results are over-represented; it also holds close analogues and randomly drawn compounds.
Field: numeric (%). Do not append units.

Illustrative cases are given below, each with its answer.
[
  {
    "MOLECULE": "N#Cc1cc(Br)ccc1NC1CCN(CC(N)=O)CC1",
    "UNIT_DESCRIPTOR": "%",
    "INHIBITION": 45.4
  },
  {
    "MOLECULE": "c1ccc(CN2C[C@@H]3COC[C@]3(COCc3ccncc3)C2)nc1",
    "UNIT_DESCRIPTOR": "%",
    "INHIBITION": 48.6
  },
  {
    "MOLECULE": "COc1ccccc1CN1C[C@@H]2COC[C@]2(COCc2ccncc2)C1",
    "UNIT_DESCRIPTOR": "%",
    "INHIBITION": 60.2
  },
  {
    "MOLECULE": "COc1c(CNCc2cccc(C(=O)N(C)C)c2)c(C)nn1C",
    "UNIT_DESCRIPTOR": "%",
    "INHIBITION": -29.8
  },
  {
    "MOLECULE": "Cc1ccnc(N2CCCC(c3nncn3C3CC3)C2)n1 (centres undefined)",
    "UNIT_DESCRIPTOR": "%",
    "INHIBITION": 46.6
  }
]

Exercise: # INHIBITION lookup, item Cc1ccc(CN2C[C@@H]3[C@@H](C(=O)NCC(C)C)CCS(=O)(=O)[C@@H]3C2)cc1
Solution: -36.9

Exercise: So what's the measured INHIBITION for this one? O=C(O)c1cn(CC2CCCN(c3nccc4occc34)C2)nn1 (centres undefined)
Solution: -2.48

Exercise: // INHIBITION lookup, key: CN(C)S(=O)(=O)N1C[C@@H](OCc2cccnc2)[C@H]2OCCC[C@H]21
Solution: 11.6

Exercise: I'd like to know its INHIBITION. The molecule in question is COc1c(CNCc2ccc(CS(C)(=O)=O)cc2)c(C)nn1C
Solution: 43.2

Exercise: Please look up its INHIBITION: COc1c(CNCCNC(=O)c2ccccc2)c(C)nn1C
Solution: 15.3

Exercise: Recorded INHIBITION of NC(=O)NC(=O)CCN1CCCC1c1nc(C2CCCCC2)co1 (centres undefined) , please.
Solution: -5.33

Exercise: Would you kindly share the measured INHIBITION for COc1cccc(CN2C[C@@H]3COC[C@]3(COCc3ccncc3)C2)c1 ?
Solution: 28.4

Exercise: Need INHIBITION, item COc1cccc(CN2C[C@@H]3COC[C@]3(COc3cccnc3)C2)c1
Solution: 67.2

Exercise: Looking for the measured INHIBITION of CC(C)c1nnc(CN2CCCC3(CC2)CN(C)C(=O)O3)o1 (centres undefined) , can you help?
Solution: 23.9

Exercise: Sample O=C(c1cc(C2CCCN(Cc3ccccn3)C2)no1)N1CCCC1 (centres undefined) — what was its INHIBITION?
Solution: 7.52
